Target: T1, DFNB31_3, Q9P202
T1 sequence (Q9P202 811-907, limits assumed, looked up): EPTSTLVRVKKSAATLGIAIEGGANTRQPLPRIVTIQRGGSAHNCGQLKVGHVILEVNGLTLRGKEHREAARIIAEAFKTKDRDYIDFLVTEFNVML
Assay: holdup assay
Design: key: below the threshold = too weak to quantify, mostly under pKd 3.1 to 4
Details: plain residues with an end cap or a label only (N-terminal biotin on a linker: ado-ado)
// reported pKd per item
No unit in the answer, only the number.

FVHPILQSAV [PRKCA, P17252] :: 3.57

Let us examine a further case.
pKd for QKNKDKEYYV [NRXN3_rs746444206, Q9Y4C0] ? 3.82
